# test details: plasma concentration in rats after rectal administration
# Assay type: in vivo
# applied conditions: plasma; rat, rectal 100 mg/kg, 120 min
Provide the reported concentration at 2 h of each item.
Hi! Could you send only the number? It should be in ng/mL, unit omitted.

Entry CC(=O)N1CCN(C(=O)[C@H](Cc2cccc(C(=N)N)c2)NS(=O)(=O)c2ccc3ccccc3c2)CC1.Cl , concentration at 2 h reported as 5300

Entry CCOC(=O)N1CCN(C(=O)C(Cc2cccc(C(=N)N)c2)NS(=O)(=O)c2ccc3ccccc3c2)CC1 (racemic) [X, reference compound] , concentration at 2 h reported as 1800

Entry CC(=O)N1CCN(C(=O)C(Cc2cccc(C(=N)N)c2)NS(=O)(=O)c2ccc3ccccc3c2)CC1 (stereo not drawn) , concentration at 2 h reported as 3780

---

# target: UniProt:P00747
# Sequence (P00747 581-810 limits assumed): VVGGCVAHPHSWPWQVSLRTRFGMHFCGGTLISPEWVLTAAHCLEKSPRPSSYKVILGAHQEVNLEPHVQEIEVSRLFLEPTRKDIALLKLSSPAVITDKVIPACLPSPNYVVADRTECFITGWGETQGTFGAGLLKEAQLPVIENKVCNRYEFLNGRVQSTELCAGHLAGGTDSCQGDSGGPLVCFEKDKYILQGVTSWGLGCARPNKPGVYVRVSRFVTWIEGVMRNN
# Sequence (P00747 97-580 partner limits assumed): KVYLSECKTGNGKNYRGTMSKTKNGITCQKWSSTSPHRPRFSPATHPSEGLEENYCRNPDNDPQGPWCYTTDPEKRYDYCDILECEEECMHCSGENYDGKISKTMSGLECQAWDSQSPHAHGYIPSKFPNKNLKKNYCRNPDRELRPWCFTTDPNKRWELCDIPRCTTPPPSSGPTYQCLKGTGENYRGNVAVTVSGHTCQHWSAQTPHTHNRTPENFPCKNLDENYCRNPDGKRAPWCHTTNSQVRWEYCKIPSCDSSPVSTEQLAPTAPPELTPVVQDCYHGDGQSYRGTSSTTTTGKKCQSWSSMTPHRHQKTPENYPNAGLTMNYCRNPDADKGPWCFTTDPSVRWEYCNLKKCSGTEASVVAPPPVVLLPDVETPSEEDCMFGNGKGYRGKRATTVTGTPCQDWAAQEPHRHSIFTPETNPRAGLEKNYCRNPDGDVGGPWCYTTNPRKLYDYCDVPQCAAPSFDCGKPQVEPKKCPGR
# test details: inhibition of plasmin, dissociation constant Ki
property: pKi
Quick note: pKi means taking -log10 of the concentration in moles per liter.

The observed pKi for CS(=O)(=O)N1CCN(C(=O)[C@H](Cc2cccc(C(=N)N)c2)NS(=O)(=O)c2ccc3ccccc3c2)CC1.Cl [Compound 5, hydrochloride] when tested with UniProt:P00747 stands at 5.05

The observed pKi for CC(=O)N1CCN(C(=O)C(Cc2cccc(C(=N)N)c2)NS(=O)(=O)c2c(C)c(C)c3c(c2C)CCC(C)(C)O3)CC1 (stereo not shown) when tested with UniProt:P00747 stands at 4.94

The observed pKi for CC(=O)N1CCN(C(=O)C(Cc2cccc(C(=N)N)c2)NS(=O)(=O)c2ccc3c(c2)C(=O)c2ccccc2C3=O)CC1 (stereo not shown) when tested with UniProt:P00747 stands at 5.07

The observed pKi for NCc1cccc(CC(NS(=O)(=O)c2ccc3ccccc3c2)C(=O)N2CCN(c3ccccn3)CC2)c1 (stereo not shown) when tested with UniProt:P00747 stands at 4.59

The observed pKi for N=C(N)c1cccc(CC(NS(=O)(=O)c2ccc3ccccc3c2)C(=O)N2CCN(c3ccccn3)CC2)c1 (stereo not shown) when tested with UniProt:P00747 stands at 5.48

The observed pKi for CC(C)C(=O)N1CCN(C(=O)C(Cc2cccc(C(=N)N)c2)NS(=O)(=O)c2ccc3ccccc3c2)CC1 (stereo not shown) when tested with UniProt:P00747 stands at 5.03

The observed pKi for CN(C)C(=O)N1CCN(C(=O)C(Cc2cccc(C(=N)N)c2)NS(=O)(=O)c2ccc3ccccc3c2)CC1 (stereo not shown) when tested with UniProt:P00747 stands at 5.21

The observed pKi for N=C(N)c1cccc(CC(NS(=O)(=O)c2ccc3ccccc3c2)C(=O)N2CCN(c3ncccn3)CC2)c1 (stereo not shown) when tested with UniProt:P00747 stands at 5.48

The observed pKi for CC(=O)N1CCN(C(=O)[C@H](Cc2cccc(C(=N)N)c2)NS(=O)(=O)c2ccc3ccccc3c2)CC1.Cl [Compound 2, hydrochloride] when tested with UniProt:P00747 stands at 5.27

The observed pKi for N=C(N)c1cccc(CC(NS(=O)(=O)c2ccc3c(c2)C(=O)c2ccccc2C3=O)C(=O)N2CCN(C=O)CC2)c1 (stereo not shown) when tested with UniProt:P00747 stands at 4.89

The observed pKi for Cc1c(C)c(S(=O)(=O)NC(Cc2cccc(C(=N)N)c2)C(=O)N2CCN(C(=O)N(C)C)CC2)c(C)c2c1OC(C)(C)CC2 (stereo not shown) when tested with UniProt:P00747 stands at 4.89

The observed pKi for N=C(N)c1cccc(CC(NS(=O)(=O)c2ccc3ccccc3c2)C(=O)N2CCN(C(=O)Cc3cccs3)CC2)c1 (stereo not shown) [AMD 2-Naph drawing 11] when tested with UniProt:P00747 stands at 5.57

The observed pKi for COc1cc(C)c(S(=O)(=O)N2CCN(C(=O)C(Cc3cccc(C(=N)N)c3)NS(=O)(=O)c3ccc4ccccc4c3)CC2)c(C)c1C (stereo not shown) when tested with UniProt:P00747 stands at 4.43

---

# test details: plasma concentration in rats after intravenous administration
# Format: in vivo
# applied conditions: plasma, iv; rat, i.v. 1 mg/kg, 15 min
Record T whenever concentration at 0.25 h is at 200 ng/mL or higher; record F when lower.

Does the molecule CN(C)C(=O)N1CCN(C(=O)[C@H](Cc2cccc(C(=N)N)c2)NS(=O)(=O)c2ccc3ccccc3c2)CC1 have recorded concentration at 0.25 h that is 200 ng/mL or more? T

Does the molecule CCOC(=O)N1CCN(C(=O)C(Cc2cccc(C(=N)N)c2)NS(=O)(=O)c2ccc3ccccc3c2)CC1 (racemic) [X, reference compound] have recorded concentration at 0.25 h that is 200 ng/mL or more? F

Does the molecule CS(=O)(=O)N1CCN(C(=O)[C@H](Cc2cccc(C(=N)N)c2)NS(=O)(=O)c2ccc3ccccc3c2)CC1.Cl have recorded concentration at 0.25 h that is 200 ng/mL or more? T

Does the molecule CC(=O)N1CCN(C(=O)[C@H](Cc2cccc(C(=N)N)c2)NS(=O)(=O)c2ccc3ccccc3c2)CC1.Cl have recorded concentration at 0.25 h that is 200 ng/mL or more? T

Does the molecule Cl.Cl.N=C(N)c1cccc(C[C@H](NS(=O)(=O)c2ccc3ccccc3c2)C(=O)N2CCN(CCO)CC2)c1 have recorded concentration at 0.25 h that is 200 ng/mL or more? F

Does the molecule CC(=O)N1CCN(C(=O)C(Cc2cccc(C(=N)N)c2)NS(=O)(=O)c2ccc3ccccc3c2)CC1 (stereo not drawn) have recorded concentration at 0.25 h that is 200 ng/mL or more? T

---

# test details: plasma concentration in rats after oral administration
# Assay type: in vivo
# applied conditions: plasma; rat, oral 50 mg/kg, 120 min
Provide the reported concentration at 2 h of each item.
Hi! Could you send only the number? It should be in ng/mL, unit omitted.

Entry CC(=O)N1CCN(C(=O)C(Cc2cccc(C(=N)N)c2)NS(=O)(=O)c2ccc3ccccc3c2)CC1 (centres unmarked) [Compound 1] , concentration at 2 h reported as 57

Entry CC(=O)N1CCN(C(=O)[C@H](Cc2cccc(C(=N)N)c2)NS(=O)(=O)c2ccc3ccccc3c2)CC1.Cl [Compound 2] , concentration at 2 h reported as 333

---

Provide the reported pKi of each item.
# target: glandular kallikrein (Sus scrofa, UniProt P00752)
# Sequence (P00752 8-246): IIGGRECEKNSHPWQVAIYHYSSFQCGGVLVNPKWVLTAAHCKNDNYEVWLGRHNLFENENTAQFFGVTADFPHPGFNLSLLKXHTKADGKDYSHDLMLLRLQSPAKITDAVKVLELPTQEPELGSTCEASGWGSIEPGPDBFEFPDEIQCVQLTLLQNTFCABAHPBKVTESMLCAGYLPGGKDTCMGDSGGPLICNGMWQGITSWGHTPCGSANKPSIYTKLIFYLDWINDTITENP
# test details: inhibition of glandular kallikrein, dissociation constant Ki
pKi: −log10 of the molar value.

The observed pKi for CS(=O)(=O)N1CCN(C(=O)C(Cc2cccc(C(=N)N)c2)NS(=O)(=O)c2cccc3ccccc23)CC1 (stereo not drawn) when tested with glandular kallikrein (Sus scrofa, UniProt P00752) stands at < 3.00

The observed pKi for CC(=O)N1CCN(C(=O)C(Cc2cccc(C(=N)N)c2)NS(=O)(=O)c2c(C)c(C)c3c(c2C)CCC(C)(C)O3)CC1 (stereo not drawn) when tested with glandular kallikrein (Sus scrofa, UniProt P00752) stands at 3.12

The observed pKi for N=C(N)c1cccc(CC(NS(=O)(=O)c2ccc3ccccc3c2)C(=O)N2CCN(CCO)CC2)c1 (stereo not drawn) when tested with glandular kallikrein (Sus scrofa, UniProt P00752) stands at < 3.00

The observed pKi for N=C(N)c1cccc(CC(NS(=O)(=O)c2ccc3ccccc3c2)C(=O)N2CCN(C(=O)C3CC3)CC2)c1 (stereo not drawn) when tested with glandular kallikrein (Sus scrofa, UniProt P00752) stands at < 3.00

The observed pKi for CCCCCC(=O)N1CCN(C(=O)C(Cc2cccc(C(=N)N)c2)NS(=O)(=O)c2ccc3ccccc3c2)CC1 (stereo not drawn) when tested with glandular kallikrein (Sus scrofa, UniProt P00752) stands at < 3.00

The observed pKi for Cc1cc(C)c(S(=O)(=O)N2CCN(C(=O)C(Cc3cccc(C(=N)N)c3)NS(=O)(=O)c3ccc4ccccc4c3)CC2)c(C)c1 (stereo not drawn) when tested with glandular kallikrein (Sus scrofa, UniProt P00752) stands at < 3.00

The observed pKi for N=C(N)c1cccc(CC(NS(=O)(=O)c2ccc3c(c2)C(=O)c2ccccc2C3=O)C(=O)N2CCN(C=O)CC2)c1 (stereo not drawn) when tested with glandular kallikrein (Sus scrofa, UniProt P00752) stands at < 3.00

The observed pKi for N=C(N)c1cccc(CC(NS(=O)(=O)c2ccc3ccccc3c2)C(=O)N2CCN(C=O)CC2)c1 (stereo not drawn) when tested with glandular kallikrein (Sus scrofa, UniProt P00752) stands at 3.36

The observed pKi for N=C(N)c1cccc(CC(NS(=O)(=O)c2ccc3ccccc3c2)C(=O)N2CCN(C(=O)Cc3cccs3)CC2)c1 (stereo not drawn) [AMD 2-Naph drawing 11] when tested with glandular kallikrein (Sus scrofa, UniProt P00752) stands at < 3.00

The observed pKi for CCOC(=O)N1CCN(C(=O)C(Cc2cccc(C(=N)N)c2)NS(=O)(=O)c2ccc3ccccc3c2)CC1 (racemic) [X, reference compound] when tested with glandular kallikrein (Sus scrofa, UniProt P00752) stands at < 3.00

The observed pKi for Cl.Cl.N=C(N)c1cccc(C[C@H](NS(=O)(=O)c2ccc3ccccc3c2)C(=O)N2CCN(CCO)CC2)c1 [Compound 3, dihydrochloride] when tested with glandular kallikrein (Sus scrofa, UniProt P00752) stands at < 3.00

The observed pKi for Cc1c(C)c(S(=O)(=O)NC(Cc2cccc(C(=N)N)c2)C(=O)N2CCN(S(C)(=O)=O)CC2)c(C)c2c1OC(C)(C)CC2 (stereo not drawn) when tested with glandular kallikrein (Sus scrofa, UniProt P00752) stands at < 3.00
